System: Malme-3M
Assay: NCI tumour cell line growth inhibition, 48 h
The source made the active and inactive calls. No stated cut-off is given here; in the data, active = GI50 up to about 1.1 µM and inactive = higher. Residues, ends and D or L forms follow the SMILES beside them. *: point of attachment. Boc = CC(C)(C)OC(=O)*; OBn = c1ccc(CO*)cc1
In this exercise, the only acceptable responses are active, inactive

input: Test call for this compound, please: CCOC(=O)C(NO)C(Sc1ccccc1)c1ccc(OC)cc1 (centres undefined)
output: inactive

input: Test call for this compound, please: CC(NC(=O)CNC(=O)OC(C)(C)C)C(=O)NC(Cc1ccccc1)C(=O)OCc1ccccc1 (stereo not drawn) (Boc-Gly-Ala-Phe-OBn; configuration not given here)
output: inactive

input: Test call for this compound, please: COc1cc(N)c2[nH]c3c(C)ccc(C)c3c2c1
output: inactive

input: Test call for this compound, please: O=[N+]([O-])c1cc(I)cc(/C=N/NS(=O)(=O)c2ccc(F)cc2)c1O
output: inactive

input: Test call for this compound, please: COc1cccc(/C=C/c2ccc(S(N)(=O)=O)cc2)c1
output: inactive

input: Test call for this compound, please: NC(=O)c1ccccc1NC(=O)C(=O)Cc1nc2ccccc2nc1O
output: inactive

input: Test call for this compound, please: CNC(=O)c1cccc2c(Nc3ccc(NS(C)(=O)=O)cc3OC)c3cccc(C)c3nc12
output: active

input: Test call for this compound, please: CCCC(=O)Nc1cc2c3c(c1)CCCN3CCC2
output: inactive

input: Test call for this compound, please: CN(C)CCOC1(Cc2ccc(Cl)cc2Cl)CCC(C(C)(C)C)CC1 (centres undefined)
output: inactive

input: Test call for this compound, please: CC(=O)OCc1cn(S(=O)(=O)c2ccc(C)cc2)cn1
output: inactive

input: Test call for this compound, please: NC(=S)N/N=C1\C(=O)N(c2cccc([N+](=O)[O-])c2)C(=O)C1C(=O)Nc1cccc([N+](=O)[O-])c1 (centres undefined)
output: inactive

input: Test call for this compound, please: Cc1ccc(C(O)(c2ccc(C)cc2)c2ccccn2)cc1
output: inactive

input: Test call for this compound, please: Cc1cccc(C)c1NC(=O)CCc1n[nH]c(=S)o1
output: inactive

input: Test call for this compound, please: Clc1ccc(-c2cn3c(nc4ccccc43)c(-c3ccccc3)n2)cc1
output: inactive

----------
Give measured GI50 for each item. Keep answers brief.
Tested on: U-251
Assay: NCI tumour cell line growth inhibition, 48 h
The source made the active and inactive calls. Cut-off read from the data, not from the text of the source: active = GI50 up to about 1.1 µM and inactive = higher.

input: Consider the molecule COc1ccc(/C=C2\S/C(=N/Nc3nc(-c4ccccc4)cs3)NC2=O)cc1OC and give its recorded GI50.
output: 26.3 µM (inactive)

input: Consider the molecule CC(=O)OC1CC2C(C)(C)C(=O)C=C[C@]2(C)C2CCC3(C)C(c4ccoc4)C(=O)C4OC43[C@]12C (stereo not given in full) and give its recorded GI50.
output: 18.8 µM (inactive)

input: Consider the molecule C=CCCCCCCCC(O)C1C[C@H](O)C(CCCCC)O1 (stereo not given in full) and give its recorded GI50.
output: 16 µM (inactive)

input: Consider the molecule COc1ccc(-c2cc(=O)c3c(OC)c(OC)c(OC)c(OC)c3o2)c(OC)c1 and give its recorded GI50.
output: 30.8 µM (inactive)

input: Consider the molecule C/C=C/[C@@]1(OC(=O)c2ccccc2)C[C@@H]2CCCC[C@@H]21 and give its recorded GI50.
output: 16.3 µM (inactive)

input: Consider the molecule N#CC(C(=O)C(=O)NCCCNC(=O)C(=O)C(C#N)c1ccccc1)c1ccccc1 (stereo not given) and give its recorded GI50.
output: > 100 µM (inactive)

input: Consider the molecule COC(=O)C(CC(=O)Nc1ccc(C)cc1)C(=O)C(=O)Nc1c(C(C)C)cccc1C(C)C (stereo not given) and give its recorded GI50.
output: > 100 µM (inactive)

input: Consider the molecule CCCCCN(CCCCC)C(=O)[C@H](CCC(=O)OCc1ccccc1)NC(=O)c1cc2ccccc2[nH]1 and give its recorded GI50.
output: > 100 µM (inactive)

input: Consider the molecule O=C1c2ccc3c4ccccc4n(Cc4ccccc4)c3c2C(=O)N1c1ccccc1 and give its recorded GI50.
output: 15.8 µM (inactive)

input: Consider the molecule CCOC(=O)CCC(NC(=O)c1ccc(OCc2nc3ccccc3n3cccc23)cc1)C(=O)OCC (stereo not given) and give its recorded GI50.
output: 17.3 µM (inactive)

input: Consider the molecule COc1ccc2c(c1)-c1[nH]c3ccc(OC)cc3c1CC2 and give its recorded GI50.
output: 17.3 µM (inactive)

input: Consider the molecule C/C(COc1ccccc1)=N\NC(N)=S and give its recorded GI50.
output: > 100 µM (inactive)

input: Consider the molecule CCOC(=O)c1cn(-c2ccc([N+](=O)[O-])cc2)c(=S)n2c1nc1ccccc12 and give its recorded GI50.
output: 36.2 µM (inactive)

input: Consider the molecule COc1ccc(C2C3CCc4ccccc4C3=NN2S(=O)(=O)c2cccc(C(=O)O)c2OC)cc1 (stereo not given) and give its recorded GI50.
output: 7.21 µM (inactive)

input: Consider the molecule COc1ccc(N2C(=O)/C(=C/c3ccc(N(CCC#N)CCC#N)cc3C)N=C2/C=C\c2ccccc2)cc1 and give its recorded GI50.
output: 46.8 µM (inactive)

input: Consider the molecule O=c1[nH]nc(Nc2ccc(Cl)cc2)c2nnn(-c3ccc([N+](=O)[O-])cc3)c12 and give its recorded GI50.
output: 14.2 µM (inactive)

input: Consider the molecule COc1ccc(C(=O)c2sc(N(C)C)nc2-c2ccccc2)cc1 and give its recorded GI50.
output: 43 µM (inactive)

input: Consider the molecule Cc1cc2nc3c(C(O)CO)nn(-c4ccccc4)c3nc2cc1C (stereo not given) and give its recorded GI50.
output: 15.2 µM (inactive)

input: Consider the molecule OC[C@@H](O)[C@H](O)[C@@H](O)/C=N/Nc1ccc(Cl)nn1 and give its recorded GI50.
output: > 100 µM (inactive)

input: Consider the molecule O=C1C2C3SC(c4cc5ccccc5cc43)C2C(=O)N1c1ccccc1 (stereo not given) and give its recorded GI50.
output: 68.2 µM (inactive)
